system: OVCAR8 (ovarian); assay: cell growth inhibition, Epo B analogs, OVCAR8; type: cell-based; conditions: OVCAR8 (Ovarian) cell line; read-out: IC50 OVCAR8 (Ovarian)
observable: IC50 (nM)
Output spec: scalar in nM, unitless text.

Recall and state the measured IC50 for C/C(=C\c1csc(C)n1)[C@@H]1C[C@@H]2O[C@@H]2CCC[C@H](C)[C@H](O)[C@@H](C)C(=O)C(C)(C)[C@@H](O)CC(=O)O1 [Epo A, epothilone A] .
6

---

Can you tell me GI50 for the items I'm about to list?
test system: PC3 (prostate); assay: cell growth inhibition, dictyostatin analogs, PC3; type: cell-based; conditions: Prostate cell, read-out: GI50 PC3
Number in nM, nothing else.

Report measured GI50 on PC3 (prostate); entry: C=C/C=C\[C@H](C)[C@@H]1OC(=O)/C=C\C=C\[C@@H](CCCCn2nnc3c2CC[C@@H]2[C@@H](CO)[C@@H]2CC3)[C@@H](O)C[C@H](O)/C=C\[C@H](C)[C@H](O)[C@@H](C)C[C@@H](C)CC[C@@H](O)[C@@H]1C [triazole 26]
4.8

Find the measured GI50 of C=C/C=C\[C@H](C)[C@@H]1OC(=O)/C=C\C=C\[C@@H](C)[C@@H](O)C[C@H](O)/C=C\[C@H](C)[C@H](O)[C@@H](C)C[C@@H](C)CC[C@@H](O)[C@@H]1C [dictyostatin] with PC3 (prostate) as test system.
1.3

State recorded GI50 with PC3 (prostate), entry C=C/C=C\[C@H](C)[C@@H]1OC(=O)/C=C\C=C\[C@@H](CCCCN=[N+]=[N-])[C@@H](O)C[C@H](O)/C=C\[C@H](C)[C@H](O)[C@@H](C)C[C@@H](C)CC[C@@H](O)[C@@H]1C [C(6) analog 1] , no comment.
1.9

Provide measured GI50 on PC3 (prostate) for C=C/C=C\[C@H](C)[C@@H]1OC(=O)/C=C\C=C\[C@@H](CCCCNC(C)=O)[C@@H](O)C[C@H](O)/C=C\[C@H](C)[C@H](O)[C@@H](C)C[C@@H](C)CC[C@@H](O)[C@@H]1C [amide 27] please.
50

---

Could you please report measured GI50 for the items listed next?
test system: 1A9 (ovarian); experiment: cell growth inhibition, dictyostatin analogs, 1A9; format: cell-based; conditions: read-out: GI50 1A9
Give just the number in nM; leave the unit off.

Recall and state the measured GI50 for C=C/C=C\[C@H](C)[C@@H]1OC(=O)/C=C\C=C\[C@@H](CCCCn2nnc3c2CC[C@@H]2[C@@H](CO)[C@@H]2CC3)[C@@H](O)C[C@H](O)/C=C\[C@H](C)[C@H](O)[C@@H](C)C[C@@H](C)CC[C@@H](O)[C@@H]1C [triazole 26] .
8.4

Determine its reported GI50: C=C/C=C\[C@H](C)[C@@H]1OC(=O)/C=C\C=C\[C@@H](C)[C@@H](O)C[C@H](O)/C=C\[C@H](C)[C@H](O)[C@@H](C)C[C@@H](C)CC[C@@H](O)[C@@H]1C [dictyostatin]
0.8

Item C=C/C=C\[C@H](C)[C@@H]1OC(=O)/C=C\C=C\[C@@H](CCCCN=[N+]=[N-])[C@@H](O)C[C@H](O)/C=C\[C@H](C)[C@H](O)[C@@H](C)C[C@@H](C)CC[C@@H](O)[C@@H]1C [C(6) analog 1] : provide GI50
2.2

Identify measured GI50 corresponding to C=C/C=C\[C@H](C)[C@@H]1OC(=O)/C=C\C=C\[C@@H](CCCCNC(C)=O)[C@@H](O)C[C@H](O)/C=C\[C@H](C)[C@H](O)[C@@H](C)C[C@@H](C)CC[C@@H](O)[C@@H]1C [amide 27]
30
